# target of assay: T1, rhesus CD11a (rhesus, UniProt H9Z8N3 26-1169)
# T1 construct: whole, on cells; On rhesus peripheral blood lymphocytes or leukocytes; also called rhCD11a
# T1 sequence: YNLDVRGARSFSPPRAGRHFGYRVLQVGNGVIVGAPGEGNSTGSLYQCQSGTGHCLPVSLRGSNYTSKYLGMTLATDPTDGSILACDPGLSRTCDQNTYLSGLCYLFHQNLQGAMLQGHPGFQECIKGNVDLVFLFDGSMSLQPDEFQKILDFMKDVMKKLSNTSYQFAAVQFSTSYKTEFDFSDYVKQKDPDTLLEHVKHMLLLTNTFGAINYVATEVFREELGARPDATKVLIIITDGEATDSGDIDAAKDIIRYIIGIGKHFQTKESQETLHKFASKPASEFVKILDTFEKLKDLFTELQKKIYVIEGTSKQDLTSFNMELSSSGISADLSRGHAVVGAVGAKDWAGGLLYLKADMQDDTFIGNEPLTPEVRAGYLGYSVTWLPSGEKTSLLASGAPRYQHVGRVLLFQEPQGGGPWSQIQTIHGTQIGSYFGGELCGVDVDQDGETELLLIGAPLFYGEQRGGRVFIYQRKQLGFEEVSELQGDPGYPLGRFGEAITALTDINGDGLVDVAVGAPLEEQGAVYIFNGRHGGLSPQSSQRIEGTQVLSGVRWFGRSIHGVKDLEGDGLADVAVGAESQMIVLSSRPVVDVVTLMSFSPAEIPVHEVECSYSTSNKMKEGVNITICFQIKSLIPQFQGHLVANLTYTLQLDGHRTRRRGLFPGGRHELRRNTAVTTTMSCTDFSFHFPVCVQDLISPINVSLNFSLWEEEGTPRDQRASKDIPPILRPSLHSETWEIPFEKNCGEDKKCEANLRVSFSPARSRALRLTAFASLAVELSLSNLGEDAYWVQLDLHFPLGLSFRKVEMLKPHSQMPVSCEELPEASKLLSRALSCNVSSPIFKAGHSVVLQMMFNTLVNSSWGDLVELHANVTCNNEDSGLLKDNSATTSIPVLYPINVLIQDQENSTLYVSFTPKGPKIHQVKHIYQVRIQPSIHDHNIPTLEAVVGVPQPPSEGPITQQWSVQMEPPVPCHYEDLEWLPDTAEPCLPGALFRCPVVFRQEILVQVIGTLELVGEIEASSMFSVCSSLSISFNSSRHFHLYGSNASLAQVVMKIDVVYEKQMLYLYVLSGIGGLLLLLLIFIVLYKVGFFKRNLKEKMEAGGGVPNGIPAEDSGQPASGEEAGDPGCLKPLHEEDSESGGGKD
# method description: rhesus PBL binding
The following binders are listed with their measured fold improvement in binding over HuIgG1 values.
Write it as a number; the unit fold goes unstated.

Use these answered entries as a reference point.
• HuIgG1 mutant AspH54Asn (antibody, V domains shown, HuIgG1 mutant, human IgG1; Kabat numbering) VH: EVQLVESGGGLVQPGGSLRLSCAASGYSFTGHWMNWVRQAPGKGLEWVGMIHPSNSETRYNQKFKDRFTISVDKSKNTLYLQMNSLRAEDTAVYYCARGIYFYGTTYFDYWGQGTLVTVSS VL: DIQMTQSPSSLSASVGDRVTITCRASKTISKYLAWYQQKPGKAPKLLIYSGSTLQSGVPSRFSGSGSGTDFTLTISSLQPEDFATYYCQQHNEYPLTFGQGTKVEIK = 10
• HuIgG1 mutant H2A1 (antibody, V domains shown, HuIgG1 mutant, human IgG1; Kabat numbering) VH: EVQLVESGGGLVQPGGSLRLSCAASGYSFTGHWMNWVRQAPGKGLEWVGMIAPADSETRYNQKFKDRFTISVDKSKNTLYLQMNSLRAEDTAVYYCARGIYFYGTTYFDYWGQGTLVTVSS VL: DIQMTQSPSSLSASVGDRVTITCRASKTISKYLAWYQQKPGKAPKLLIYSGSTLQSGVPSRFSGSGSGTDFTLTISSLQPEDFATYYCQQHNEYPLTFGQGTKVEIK = 77
• HuIgG1 mutant AspH54Ala (antibody, V domains shown, HuIgG1 mutant, human IgG1; Kabat numbering) VH: EVQLVESGGGLVQPGGSLRLSCAASGYSFTGHWMNWVRQAPGKGLEWVGMIHPSASETRYNQKFKDRFTISVDKSKNTLYLQMNSLRAEDTAVYYCARGIYFYGTTYFDYWGQGTLVTVSS VL: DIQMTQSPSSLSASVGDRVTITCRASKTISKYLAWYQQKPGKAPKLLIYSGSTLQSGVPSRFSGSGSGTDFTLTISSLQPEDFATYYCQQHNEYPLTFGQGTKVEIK = 3

Kindly consider the entry below.
(Q) I'd like to know its fold improvement in binding over HuIgG1. The binder in question is HuIgG1 mutant GluH56Ala (antibody, V domains shown, HuIgG1 mutant, human IgG1; Kabat numbering) VH: EVQLVESGGGLVQPGGSLRLSCAASGYSFTGHWMNWVRQAPGKGLEWVGMIHPSDSATRYNQKFKDRFTISVDKSKNTLYLQMNSLRAEDTAVYYCARGIYFYGTTYFDYWGQGTLVTVSS VL: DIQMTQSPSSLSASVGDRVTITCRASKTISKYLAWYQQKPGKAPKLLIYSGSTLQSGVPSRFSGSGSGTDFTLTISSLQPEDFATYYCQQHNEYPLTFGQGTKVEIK
(A) 3
